target under test: UniProt:Q5JUK3
Sequence (Q5JUK3 1-1230): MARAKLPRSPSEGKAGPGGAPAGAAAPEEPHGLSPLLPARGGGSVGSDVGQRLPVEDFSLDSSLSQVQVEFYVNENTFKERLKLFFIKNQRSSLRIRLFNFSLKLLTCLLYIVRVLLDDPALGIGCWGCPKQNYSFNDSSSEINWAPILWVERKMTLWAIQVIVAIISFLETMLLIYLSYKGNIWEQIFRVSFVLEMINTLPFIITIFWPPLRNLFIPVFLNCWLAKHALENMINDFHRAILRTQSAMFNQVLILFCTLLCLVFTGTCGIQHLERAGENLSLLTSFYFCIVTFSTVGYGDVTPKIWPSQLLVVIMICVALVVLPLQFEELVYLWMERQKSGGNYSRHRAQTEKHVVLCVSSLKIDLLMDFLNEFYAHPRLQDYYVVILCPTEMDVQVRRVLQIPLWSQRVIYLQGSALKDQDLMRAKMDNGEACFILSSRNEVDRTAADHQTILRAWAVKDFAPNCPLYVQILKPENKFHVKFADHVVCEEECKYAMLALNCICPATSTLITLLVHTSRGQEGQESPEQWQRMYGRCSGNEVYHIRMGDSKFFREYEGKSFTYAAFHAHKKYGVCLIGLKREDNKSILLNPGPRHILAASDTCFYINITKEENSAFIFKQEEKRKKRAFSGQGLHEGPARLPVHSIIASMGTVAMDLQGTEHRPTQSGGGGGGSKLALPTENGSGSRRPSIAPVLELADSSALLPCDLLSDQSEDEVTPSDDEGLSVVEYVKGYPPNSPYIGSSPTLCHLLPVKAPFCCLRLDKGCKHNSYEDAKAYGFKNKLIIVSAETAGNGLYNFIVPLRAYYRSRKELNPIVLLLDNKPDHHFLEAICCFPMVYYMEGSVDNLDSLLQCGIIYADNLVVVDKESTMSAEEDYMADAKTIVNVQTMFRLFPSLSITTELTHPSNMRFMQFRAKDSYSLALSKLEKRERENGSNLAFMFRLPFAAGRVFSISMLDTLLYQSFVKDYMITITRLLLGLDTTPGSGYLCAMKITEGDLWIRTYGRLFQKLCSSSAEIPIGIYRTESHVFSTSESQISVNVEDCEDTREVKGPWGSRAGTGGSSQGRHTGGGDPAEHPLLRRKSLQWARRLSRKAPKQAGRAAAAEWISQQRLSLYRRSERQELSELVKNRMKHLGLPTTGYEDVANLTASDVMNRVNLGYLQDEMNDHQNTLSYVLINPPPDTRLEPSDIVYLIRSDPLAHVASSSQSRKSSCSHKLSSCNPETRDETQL
protocol: KCNT1 patch clamp assay (SyncroPatch 384PE automated patch clamp)
measurement conditions: tetracycline inducible cell line (HEK-TREX); perforated patch mode; step from -80 mV to 0 mV; room temperature; read-out: KCNT1-WT IC50
Protocol: Inhibition of KCNT1 (KNa1.1, Slack) was evaluated using a tetracycline inducible cell line (HEK-TREX). Currents were recorded using the SyncroPatch 384PE automated, patch clamp system. […] Current were recorded in perforated patch mode (10 μM escin) from a population of cells. […] Currents were recorded at room temperature. […] Mean current was measured during the step to 0 mV. […] The average mean current from 3 sweeps was calculated and the % inhibition of each compound was calculated. […]
pIC50: −log10 of the molar value.
metric name: pIC50

molecule | target under test | metric name | value reported
CNS(=O)(=O)c1ccc(C(=O)NCc2ccc(NC(C)C)cc2)s1 [Compound 40] | UniProt:Q5JUK3 | pIC50 | ≤ 4.70
CS(=O)(=O)c1ccc(C(=O)NCc2ccc(C(F)(F)F)cc2F)s1 [Compound 42] | UniProt:Q5JUK3 | pIC50 | ≥ 6.00
CNS(=O)(=O)c1ccc(C(=O)NCc2ccc(OCC(F)(F)F)cc2)s1 [Compound 35] | UniProt:Q5JUK3 | pIC50 | 4.70 to 6.00
CNS(=O)(=O)c1ccc(C(=O)NCc2ccc(Cl)cc2C(F)(F)F)s1 [Compound 8] | UniProt:Q5JUK3 | pIC50 | ≥ 6.00
CNS(=O)(=O)c1ccc(C(=O)NCc2ccc(Cl)cc2C)s1 [Compound 9] | UniProt:Q5JUK3 | pIC50 | ≥ 6.00
CNS(=O)(=O)c1ccc(C(=O)NCc2ccc(Cl)cc2C2CC2)s1 [Compound 12] | UniProt:Q5JUK3 | pIC50 | ≥ 6.00
CC(C)c1ccc(CNC(=O)c2ccc(S(C)(=O)=O)s2)cc1 [Compound 24] | UniProt:Q5JUK3 | pIC50 | ≥ 6.00
CNS(=O)(=O)c1ccc(C(=O)NCc2ccc(Cl)cc2O)s1 [Compound 14] | UniProt:Q5JUK3 | pIC50 | ≥ 6.00

Where do the numbers come from? From patent US20230219921A1.
